melting point values for the molecules below.

In [3]: df
Out[3]:
                               smiles_input  experimental_readout         result
0  Cc1ccc(NC(=O)c2cccc(F)c2)cc1Nc1nc(-c2cccnc2)cs1         melting point  184 to 186 °C
1  COc1cccc(C(=O)Nc2ccc(C)c(Nc3nc(-c4cccnc4)cs3)c2)c1         melting point    76 to 79 °C
2  Cc1ccc(NC(=O)c2cccc(OCCN3CCOCC3)c2)cc1Nc1nc(-c2cccnc2)cs1         melting point    75 to 80 °C
3  Cc1ccc(F)c(C(=O)Nc2ccc(C)c(Nc3nc(-c4cccnc4)cs3)c2)c1         melting point  103 to 106 °C
4  Cc1ccc(NC(=O)Nc2ccc(C)c(Nc3nc(-c4cccnc4)cs3)c2)cc1         melting point  238 to 240 °C
5  Cc1ccc(NC(=O)c2cccc(N3CCOCC3)c2)cc1Nc1nc(-c2cccnc2)cs1         melting point  247 to 248 °C

## Input I am curious: what melting point value has been reported for `Cc1ccc(NC(=O)Nc2ccccc2F)cc1Nc1nc(-c2cccnc2)cs1` ?
## Output 203 to 206 °C

## Input I am curious: what melting point value has been reported for `Cc1ccc(NC(=O)Nc2cccc(F)c2)cc1Nc1nc(-c2cccnc2)cs1` ?
## Output 210 to 215 °C
